- Tested on: MOLT-4
- test-description: NCI tumour cell line growth inhibition, 48 h
Active and inactive are the calls of the source. Cut-off read from the data, not from the text of the source: active = GI50 up to about 1.1 µM and inactive = higher.
Response enum: active, inactive

A selection of reference data follows.
CCN(CC)CCOc1ccc(N2C(=O)c3cccc4cc([N+](=O)[O-])cc(c34)C2=O)cc1	inactive
O=[N+]([O-])c1ccc2[nH]nc(OCc3ccccn3)c2c1	inactive
Cn1c(=O)c2c(nc3n2CC(=O)N3CCCCl)n(C)c1=O	inactive
CC(C)(CN1CCCCC1)C(=O)/C=C/c1c(Cl)cccc1Cl	active
O=C(CC1=Nc2nnc(-c3nnc4n3C(=O)C(CC(=O)C3CC3)=N4)n2C1=O)C1CC1	inactive
COc1ccc(C2C3C(=O)C=CC(=O)C3[C@@H]2C)cc1OC (stereo partly specified)	inactive

Ask: Check the results log: what was the call for COC(=O)/C=C(\C)CC/C=C(\C)CCC1OC1(C)C (stereo unspecified) ?
Result: inactive

Ask: Tell me the assay call for `COc1ccc(C(=O)c2cc(OC)c(OC)c(OC)c2)cc1OC` please.
Result: inactive

Ask: Per the records of this test, what outcome belongs to `O=CCOCc1cc2c(cc1Br)OCO2` ?
Result: inactive

Ask: Field: outcome | Entry: `O=c1cc(N2CCOCC2)[nH]c(=O)n1-c1cccc(Cl)c1`
Result: inactive

Ask: Record lookup: outcome of this test for `COc1cc(CO)c(CC(=O)NCCCc2ccccc2)cc1OC` ?
Result: inactive

---

- System: OVCAR-3
- test-description: NCI tumour cell line growth inhibition, 48 h
Activity calls are given as the source filed them. Rule as the data show it: active = GI50 up to about 1.1 µM and inactive = higher.
Measured GI50 by item

CC1(c2nc3ccccc3[nH]2)CCC(C#N)C(C)(C)O1 (stereo unspecified)	> 100 µM (inactive)

Ask: Request the reported GI50 associated with `O=C(NC1=C(Cl)C(=O)c2ccccc2C1=O)c1ccccc1`
Result: 19.1 µM (inactive)

Ask: Return reported GI50; argument: Clc1ccc2c(c1)CC1C[N+]3=C(CCCC3)C1=C2 (stereo unspecified)
Result: 34.4 µM (inactive)

Ask: Can you look up the measured GI50 of `CNc1nc(N)cc(O)n1` for me?
Result: > 100 µM (inactive)

Ask: // returns reported GI50 for input `CN(C)C(=O)Oc1ccc(C(=S)Nc2ccccc2)cc1Br`
Result: 30.1 µM (inactive)

Ask: Which measured GI50 value corresponds to `CN1CCN(c2cc3[nH]c(-c4ccc(Cl)cc4)nc3cc2F)CC1` ?
Result: 11.8 µM (inactive)

---

- Test system: OVCAR-8
- test-description: NCI tumour cell line growth inhibition, 48 h
Calls of active or inactive are those of the source. Rule as the data show it: active = GI50 up to about 1.1 µM and inactive = higher.
As shown below, each of these compounds has a reported GI50 value.

Some compounds with recorded GI50:
C[C@]12CC[C@H](OC3CCCCO3)CC1=CC[C@@H]1C2CC[C@]2(C)/C(=N/OCCC#N)CCC12 (stereo partly drawn)	34.2 µM (inactive)
Cc1ccc(S(=O)(=O)N/N=C2\C=C[C@]3(CC2)C(=O)N(C)c2ccccc23)cc1	> 100 µM (inactive)

Read the next record carefully.
Ask: For the compound shown here, `CC(=O)[C@@]1(c2ccccc2)CC2(CCN(C)CC2)O[C@H]1C` , give the reported GI50.
Result: > 100 µM (inactive)

---

- System: SK-MEL-28
- test-description: NCI tumour cell line growth inhibition, 48 h
Active and inactive are the calls of the source. Rule as the data show it: active = GI50 up to about 1.1 µM and inactive = higher.
measure: GI50

CCOc1cc2c(cc1O)CC[C@@H]1[C@@H]2CC[C@]2(C)C(N)CC[C@@H]12 (stereo partly drawn)	9.62 µM (inactive)

Ask: # query: GI50 of entry `COc1cc(/C=C(\NC(=O)c2ccccc2)c2nc3cncnc3[nH]2)cc(OC)c1OC`
Result: > 100 µM (inactive)

Ask: Data request, read-out GI50, for `CCOC(=O)c1cn2c(n1)sc1cc([N+](=O)[O-])ccc12`
Result: > 100 µM (inactive)
